PROCEDURE DETAILS: Flashpoint
Format: physicochemical
SETTINGS: Table 2, base oil
REPORTED ENDPOINT: Flashpoint (°C)
The reply should contain only the number, in °C.

Query CC(C)CCCCCCCCCCOC(=O)CCCCCCCCCCC(=O)OCCCCCCCCCCC(C)C [C12D13, di(isotridecyl)dodecanedioate] yields Flashpoint of 277

Consider CCCCCCCCCCCCCOC(=O)CCCCCCCC(=O)OCCCCCCCCCCCCC [Ditridecyl azelate] . Its measured Flashpoint is 243

// field: Flashpoint; key: CC(C)CCCCCCCOC(=O)CCCCCCCC(=O)OCCCCCCCC(C)C [Diisodecyl azelate] ; value = 230

Record summary for CC(C)CCCCCCCCCCOC(=O)CCCCC(=O)OCCCCCCCCCCC(C)C [DITA, diisotridecyl adipate, reference compound] : reported Flashpoint = 227

For record CC(C)CCCCCCCCCCOC(=O)CCCCCCCC(=O)OCCCCCCCCCCC(C)C [C9D13, di(isotridecyl)nonanedioate] the listed Flashpoint is 258

The compound identified as CC(C)CCCCCCCOC(=O)CCCCCCCCCCC(=O)OCCCCCCCC(C)C [Di(isodecyl) dodecanedioate] registered its Flashpoint at 266

The compound listed as CC(C)CCCCCCCOC(=O)CCCCC(=O)OCCCCCCCC(C)C [Diisodecyl adipate] shows Flashpoint equal to 235

Item: CCCCCCCCC(CCCCCC)COC(=O)CCCCCCCC(=O)OCC(CCCCCC)CCCCCCCC (centres unmarked) [Bis(2-hexyldecyl) azelate] | Flashpoint: 278

====

PROCEDURE DETAILS: Kinematic viscosity
Type: physicochemical
SETTINGS: Table 3, 150° C.
REPORTED ENDPOINT: η150° C. (mm²/s)
Value expressed in mm²/s; do not type the unit.

Given item CC(C)CCCCCCCCCCOC(=O)CCCCCCCCCCC(=O)OCCCCCCCCCCC(C)C [C12D13, di(isotridecyl)dodecanedioate] , the value recorded as its η150° C. is 3.45

====

PROCEDURE DETAILS: Kinematic viscosity
Format: physicochemical
SETTINGS: Table 2, 100° C.
Could you please report measured η100° C. for the items listed next?
The response must be a number in mm^2/s with no trailing unit.

The recorded η100° C. for CC(C)CCCCCCCCCCOC(=O)CCCCC(=O)OCCCCCCCCCCC(C)C [DITA, diisotridecyl adipate, reference compound] is 5.4

Memo: CCCCCCCCC(CCCCCC)COC(=O)CCCCCCCC(=O)OCC(CCCCCC)CCCCCCCC (stereo not shown) [Bis(2-hexyldecyl) azelate] , reported η100° C.: 6.60

Lookup result for CC(C)CCCCCCCCCCOC(=O)CCCCCCCC(=O)OCCCCCCCCCCC(C)C [C9D13, di(isotridecyl)nonanedioate] ; measured η100° C.: 6.82

# compound CCCCCCCCCCCCCCOC(=O)CCCCC(=O)OCCCCCCCCCCCCCC [Ditetradecyl adipate] ; its η100° C. = 5.1
